Listed below: pKi values for each entry.
Target sequence: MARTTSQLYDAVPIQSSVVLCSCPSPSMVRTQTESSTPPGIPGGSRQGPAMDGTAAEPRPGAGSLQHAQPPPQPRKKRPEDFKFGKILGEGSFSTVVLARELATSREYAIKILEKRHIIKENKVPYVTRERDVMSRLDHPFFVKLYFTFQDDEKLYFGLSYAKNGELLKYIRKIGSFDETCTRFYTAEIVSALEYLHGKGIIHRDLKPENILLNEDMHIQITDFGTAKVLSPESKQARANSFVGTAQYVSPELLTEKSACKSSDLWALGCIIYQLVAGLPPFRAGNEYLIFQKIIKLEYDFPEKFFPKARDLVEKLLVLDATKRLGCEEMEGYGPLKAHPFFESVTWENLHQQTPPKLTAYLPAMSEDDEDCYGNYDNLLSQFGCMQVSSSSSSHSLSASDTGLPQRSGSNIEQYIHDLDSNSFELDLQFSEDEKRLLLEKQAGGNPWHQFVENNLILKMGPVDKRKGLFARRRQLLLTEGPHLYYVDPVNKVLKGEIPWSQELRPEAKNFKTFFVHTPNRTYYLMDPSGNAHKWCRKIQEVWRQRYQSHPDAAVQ
pKi: −log10 of the molar value.

compound	pKi
NCC[C@H](C(=O)Nc1ccc2[nH]nc(NC(=O)c3cccs3)c2c1)c1ccccc1	> 6.00
COc1ccc(C(=O)Nc2n[nH]c3ccc(NC(=O)C(CCN)c4ccc(Cl)c(Cl)c4)cc23)cc1 (stereo not shown)	> 6.00

*Q* Name the reported pKi value associated with the compound CC(C)c1cccc(-c2n[nH]c3ccc(NC(=O)C(CCN)c4ccccc4)cc23)c1 (stereo not shown)
*A* < 5.52

*Q* I am curious: what pKi value has been reported for NCCC(C(=O)Nc1ccc2[nH]nc(Nc3ccc(Cl)cc3)c2c1)c1ccc(Cl)c(Cl)c1 (stereo not shown) ?
*A* < 5.52

*Q* Given NCCC(C(=O)Nc1ccc2[nH]nc(Nc3cccc(F)c3)c2c1)c1ccc(Cl)c(Cl)c1 (stereo not shown) , state its recorded pKi.
*A* 5.52 to 6.00

*Q* Returns the measured pKi for the input compound. Input: NCCC(C(=O)Nc1ccc2[nH]nc(NC(=O)c3cccc(Br)c3)c2c1)c1ccc(Cl)c(Cl)c1 (stereo not shown)
*A* 5.52 to 6.00

*Q* Suppose we examine the compound O=C(CCC(C(=O)N1CCN(Cc2ccccc2)CC1)c1ccccc1)Nc1ccc2[nH]ncc2c1 (stereo not shown) ; what pKi value has been reported?
*A* < 5.52
